Data provenance: the nanobody polyreactivity screen of Harvey et al. (2022)

assay: yeast display, Sf9 membrane polyspecificity reagent, FACS + sequencing; frameworks hold sequencing errors
endpointName: polyreactivity (PSR sort gate)

Please review the following examples before continuing.
monomerSequence	polyreactivity (PSR sort gate)
QVQLVESGGGLVHAGGSLRLSCAASGFTFAYNAMGWYRQAPGKERELVAAIRRRGGITYYADSVKGRFTISRDNAKNTVYLQMNSLKPEDTAVYYCNAVRSYPAGYDSWGQGTQVTVSS	low polyreactivity
QVQLVESGGGLVQAGGSLRLSCAASGRTFYRYAMGWYRQAPGKERELVAVITSGSRTKYADSVKGRFTISRDNAKNTVYLQMNSLKPEDTAVYYCAARGLALEGKSSGEYWGQGTQVTVSS	high polyreactivity
QVQLVESGGGLVQAGGSLRLSCAASGSTFGRYALGWYRQAPGKEREFVAAISWSGGSTYYADSVKGRFTISRDNAKNTVYLQMNSLKPEDSAVYYCAASYIYQSSWYHRMYYWGQGTQVTVSS	high polyreactivity
QVQLVESGGGLVQAGGSLRLSCAASGSIFTLYAMGWYRQAPGKERELVAAITSGGRTYYADSVKGRFTISRDNAKNTVYLQMKSLKPEDTAVYYCNAVSRSWDFEYWGQGTQVTVSS	high polyreactivity

# input for lookup
Ask: Reported polyreactivity (PSR sort gate) for `QVQLVDSGGGLVQAGGSLRLSCAASGITITEYAMGWYRQAPGKERELVAVISSVGTMYYADSVKGRFTISRDNAKNTVYFQMNSLKPEDTAVYYCAADYSDDGEYPYWSGSDYWGQGTQVTVSS` : what is it?
Result: low polyreactivity

====

assay: yeast display, Sf9 membrane polyspecificity reagent, FACS + sequencing; frameworks hold sequencing errors
endpointName: polyreactivity (PSR sort gate)

Answered cases to consult:
monomerSequence	valueReported
QVQIVETGGGLVQAGGSLRISCAASGSTLIRNVMGWYRQAPGKERELVAAINTRGTTTYYADSVKGRFTISRDNAKNTVYLQMNSLKPEDTAVYYCAAYAYSAYSPDGQRSRYYYWGLGTQVTVSS	high polyreactivity
QVQLVESGGGLVQAGGSLRLSCASSGSIFAGYAMGWYRQAPGKERELVATITSGGSTNYADSVKGRFTISRDNAKNTVYLQMNSLKPEDTAVYYCAADVEVSIPSSYTGGEYDYWGQGTQVTVSS	low polyreactivity
QVQLVESGGGLVQAGGSLRLSCPASGSTIDPNARGWYRQAPGNERELVAAISYTGGRTYYADSVKGRFTISRDNAKNTVYLQMNSLKPEDTAVYYCAVLVVGATTQDEPYFSGVEHDYWGQGTQVTVSS	low polyreactivity
QVQLVESGGGLVQAGGSLRLSCAASGSIFTPNTMGWYRQAPGKEREFVAAITFSGGSTYYADSVKGRFTISRDNAKNTVYLQMNSLKPEDTAVYYCAAVYPTYDWYTPAYYYWGQGTQVTVSS	low polyreactivity
QVQLVESGGGLVQAGGSLRLSCAASGRIFPQYAMGWSRQAPGKERELVAGITSVGSTYYADSVKGRFTISRDNAKNTVYLQMNSLKPEDTAVYYCAAVPSRYVRANRRTYRYYYWGQGTQVTVSS	high polyreactivity

Then this sequence:
Ask: Suppose we examine the sequence `QVQLVETGGGLVQAGGSLRLSCAASGSTFESYAMGWYRQAPGKERELVASISRCGGTTFYADSVKVRFTISRDNAKNTVYLQMNSLKPEDTEVYYCAAKRRRLGGDYWGQGTQVTVSS` ; what polyreactivity (PSR sort gate) value has been reported?
Result: high polyreactivity

====

assay: yeast display, Sf9 membrane polyspecificity reagent, FACS + sequencing; frameworks hold sequencing errors
endpointName: polyreactivity (PSR sort gate)

monomerSequence	valueReported
QVQLVESGGGLDHAGGRLRLSCAASGSIFYENVMGWYRQAPGKERELVAGISRSGGRTYYADSVKGSFTISRDYAKNTVYLQMNSLQPVDTAVYYCAALTPRNRYRKFDYWGQGTQVTVSS	high polyreactivity
QVQLLESGGGLVQAGGSLRLSCAASGLTVYGYVMAWYRHAPGKERELVASISRSGCRTYYADSVKGRFTISRDNEKNTVYLQMNSLKPEDTAVYYCAADDQVGQEDDYWGQGTQVTVSS	low polyreactivity
QVQLVESGGGLVQAGGSLRLSCAASGSTFTWNVMGWYRQAPGKERELVASITSGDSTYADSVKGRFTISRDNAKNTVYLQMNSLKPEDTAVYYCNVGYDQEKYGYWGQGTQVTVSS	low polyreactivity
QVQLVESVGVLVQAGGSLRLSCAASVSIFDYNAMGWYRQAPGKERELVADITISDDSTYYADSVKGRFTISRDNAKNTVYLQMNSLKPEDTAVYYCAADIKYYWYYYYWAYAYDYWGQGTQVTVSS	high polyreactivity
QVQLVESGGGLVQAGGSLRLSCAASGRTFFENAMGWYRQAPGKEREFVAAISYNGGSTYYADSVKGRFTISRDNAKNTVYLQMNSLKTEDTAVYYCAADPNYGYDYWGQGTQVTVSS	low polyreactivity

Ask: Can you share its polyreactivity (PSR sort gate)? I mean this sequence: `QVQLVESGGGLVQAGGSLRLSCAASGLTSLGNAMGWYRQAPGKERELVAAITRTGTSTYYADSVKGRFTISRDNAKNTVYLQMNSLKPEDTAVYYCAALDRYSTEYKYQLYKQEYDYWVQGTQVTVSS`
Result: low polyreactivity

Ask: // returns reported polyreactivity (PSR sort gate) for input `QVQLVESGGGLVQAGGSLRLSCGASGRTFRKYAMGWYRQAPGKERELVASITYSGGSTYYADSVKGRFTISRDNAKNTVYLQMNSLKPEDTAVYYCAARLHWNRYPQTLYDYWGLGTQVTVSS`
Result: high polyreactivity

Ask: For `QVQLVESGGGLVQAGGSLRLSCAASGLTFGNNAMGWYRQAPGKERELVAAISSDGTTYYADSVKGRFTISRDNAKNTVYLQMNSLKPEDTAVYYCNAAAEISSFDYDYWGQGTQVTVSS` , what is its reported polyreactivity (PSR sort gate)?
Result: low polyreactivity

Ask: Given `QVQLVESGGGLVQAGGSLRLSCAASGFTFAFYAMGRYRQAPGKERELVAAISRRGGSTTYADSVKGRFTISRDNAKNTVYLQMNSLKPEDTAVYYCNAVSTRNPGPDYYYWGQGTQVTVSS` , state its recorded polyreactivity (PSR sort gate).
Result: high polyreactivity

Ask: Which value of polyreactivity (PSR sort gate) has been reported for `QVQLVESGGGLVQAGGSLRLSCAASARTYGNYAMGWYREAPGKERELVADITRRGGSTSYADSVKGRFTISRDNAKNTVYLQMNSLKPEDTAVYYCNKRTTPYYAQGISRLEYDYWGQGTQVTVSS` in the records?
Result: low polyreactivity

Ask: Requested field: polyreactivity (PSR sort gate). Item: `QVQLVESGGGLVQAGGSLRLSCAASGRIFRYYAMGWYRQAPGKERELVATISSSGGSTYYADSVKGRFTISRDNAKNTVYLQMKSLKPEDTAVYYCAADWYGYRQFHGYYWGQGTQVTVSS`
Result: high polyreactivity

Ask: Which polyreactivity (PSR sort gate) value is on record for `QVQLVESGGGLVQAGGSLRLSCAASGRTFKPYAMGWYRQAPGKERELVAVISSTGSTKYADSVKGRFTISRDNAKNTVYLQMNSLKPEDTAVYYCAAQNTYIYYWGQGTQVTVSS` ?
Result: high polyreactivity

Ask: Requested field: polyreactivity (PSR sort gate). Item: `QVQLVESGGGLVQAGGSLRLSSAASGLTFNYYAMGWYRQAPGKERELVAAISKSGGRTYYADSVKGRFTISRDNAKNTVYLQMNSLKPEDTAVYYCNDVVPRSRYFSWTYDYWGQGTQVTVSS`
Result: high polyreactivity

Ask: GET /values?readout=polyreactivity (PSR sort gate)&item= `QVQLVESGGGLVQAGGSLRLSCAASGRTFGDYAMGWYRQEPGKERELVAGITGRDSTNYADSVKGRFTISRDNAKNTVYLQMNSLIREDTAVYYCNADFWYTDISYGLATYDYWGQGTQVTVSS`
Result: high polyreactivity

====

test: yeast display, Sf9 membrane polyspecificity reagent, FACS + sequencing; frameworks hold sequencing errors
endpointName: polyreactivity (PSR sort gate)

Answered examples (4):
monomerSequence	polyreactivity (PSR sort gate)
QVQLVESGGGLVQAGGSLRLICAASGSIQDWNAMGWYRQAPGKERELVAAITNGVSTHYADSVKGRFTISRDNAKNTVYLQMNSLKPEDTAVYYCAKAFWWRPEWWLRSARGSWGLGTQVTVSS	low polyreactivity
QVQLVESGGGLVQAGGSLRLSCAASGGTFTFYAMGWYRQAPGKERELVATINWSGGSTYYADSVKGRFTISRDNAKNTVYLQMNSLKPEDTAVYYCNAAWPYKSVEYWGQGTQVTVSS	low polyreactivity
QVQLVESGGGLVQAGGSLRLSCAASGSTFPRYALGWYRQAPGKERELVAAISRSGGSTYYADSVKGRFTISRDNAKNTVYLQMNSLKPEDTAVYYCAARYERGSYKYDYWGQGTQVTVSS	high polyreactivity
QVQLVESGGGLVKAGGCLRISCAASGRIFGSYAMGWYREAPGIERELVASIRSGGRTKYADSVKGRFTISRDNAKKTVYLQMNSLKPEDTAVYYCDVPIQWDYGYWGQGTQVTVSS	low polyreactivity

Ask: Which polyreactivity (PSR sort gate) is reported for this sequence? `QVQLVESGGGLVQAGGSLRLSCAASGFTFGHYAMGWYRQAPGKERELVAAISKSGTRTYYADSVKGRFTISRDNAKNTVYLLMNSLKPEDTAVYYCATTAYNGYDYWGQGTQVTVSS`
Result: high polyreactivity

Ask: Give the measured polyreactivity (PSR sort gate) of `QVQLVESGGGLVQAGGSLRLSCAASGSIFSYYVMGWYRQAPGKERELVAAISYSGGRTYYADSVKGRFTISRDNAKNTVYLQMNSLKQEDTAVYYCARRSYVYPYGYDYWGQGTQVTVSS` .
Result: high polyreactivity

Ask: Tell me the measured polyreactivity (PSR sort gate) of `QVQLVESGGGLVQAGGSLRLSCPASGFIFRYYAMGWYRQAPGKERELVAAISWSGGSTNYADSVKGRFTISRDNAQNTVYLQINSLKPEDTALSYCADDGTVRSWGRYYHWGQGTQVTVSS` , please.
Result: low polyreactivity
